- system_name: HLA-A*24 (human)
- method: UV peptide exchange, anti-b2m ELISA
measurement_name: peptide exchange yield

INPUT: Would you mind telling me what peptide exchange yield value was observed for VFKASKITF [SEQ ID No 191 peptide …] ?
OUTPUT: 50 to 75%

INPUT: Would you mind telling me what peptide exchange yield value was observed for EYNQWFTKL [SEQ ID No 176 peptide …] ?
OUTPUT: 50 to 75%

INPUT: Would you mind telling me what peptide exchange yield value was observed for EYQENFLSF [SEQ ID No 206 peptide …] ?
OUTPUT: 50 to 75%

INPUT: Would you mind telling me what peptide exchange yield value was observed for TYGDAGLTYTF [SEQ ID No 283 peptide …] ?
OUTPUT: 50 to 75%

INPUT: Would you mind telling me what peptide exchange yield value was observed for IYTMIYRNL [SEQ ID No 210 peptide …] ?
OUTPUT: > 75%

INPUT: Would you mind telling me what peptide exchange yield value was observed for IYSWILDHF [SEQ ID No 173 peptide …] ?
OUTPUT: > 75%

INPUT: Would you mind telling me what peptide exchange yield value was observed for IFLDYEAGTLSF [SEQ ID No 227 peptide …] ?
OUTPUT: > 75%

INPUT: Would you mind telling me what peptide exchange yield value was observed for VFTSTARAF [SEQ ID No 183 peptide …] ?
OUTPUT: 50 to 75%
